Target system: T1, human BCMA-Fc/His (1-51) (human, UniProt Q02223 1-51)
T1 construct: also called recombinant human BCMA-Fc/His; recombinant human BCMA-His (Sino Biological Inc.); not shown: Fc region; C-terminal His tag
T1 sequence: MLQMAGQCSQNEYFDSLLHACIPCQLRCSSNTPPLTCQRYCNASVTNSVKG
Test description: BLI (Octet), antigen on Ni-NTA biosensor, IgG in solution

{"columns": ["Binder", "kon, M⁻¹ s⁻¹"],
 "data": [
  ["anti-BCMA IgG antibody 2F8 (antibody, V domains shown) VH: EVQLLESGGGLVQPGGSLRLSCAASGFTFSNYGMSWVRQAPGKGLEWVSEIIPIFDTSNYAQKFQGRFTISRDNSKNTLYLQMNSLRAEDTAVYYCAKIPGNRHDYWGQGTLVTVSS VL: QSVLTQPPSASGTPGQRVTISCTRMQRQSDWYQQLPGTAPKLLIYDNNKRPLGVPDRFSGSKSGTSASLAISGLRSEDEADYYCQSYDSNAYVVFGGGTKLTVLG", 147000],
  ["anti-BCMA IgG antibody 5C3 (antibody, V domains shown) VH: EVQLLESGGGLVQPGGSLRLSCAASGFTFSDYYIHWVRQAPGKGLEWVSAISGSGGSTYYADSVKGRFTISRDNSKNTLYLQMNSLRAEDTAVYYCASDLGDTTFDSWGQGTLVTVSS VL: EIVLTQSPGTLSLSPGERATLSCQASDDISNYLNWYQQKPGQAPRLLIYGVSNRASGIPDRFSGSGSGTDFTLTISRLEPEDFAVYYCQQSYSTPPITFGQGTKLEIKR", 591000]
]}
